Molecular target: UniProtKB P37058
Assay: Inhibition of 17Beta-HSD3 expressed in homogenized HEK293 cells assessed as transformation of [14C]-4-androstene-3,17-dione into [14C]-testosterone in presence of NADPH at 0.01 uM
Assay type: cell-based
Use 30% as the dividing line for inhibition, with the line itself on the y side and lower values as n.

[[record]]
molecule = "C[C@@H]1CN(Cc2cccc(C(F)(F)F)c2)[C@@H](C)CN1C[C@@]1(O)CC[C@@]2(C)[C@@H](CC[C@@H]3[C@@H]2CC[C@]2(C)C(=O)CC[C@@H]32)C1"
discrete_label = "y"

[[record]]
molecule = "C[C@]12CC[C@](O)(CN3CCCCC3)C[C@@H]1CC[C@@H]1[C@@H]2CC[C@]2(C)C(=O)CC[C@@H]12"
discrete_label = "n"

[[record]]
molecule = "C[C@@H]1CN(S(=O)(=O)c2cccc(C(F)(F)F)c2)[C@@H](C)CN1C[C@@]1(O)CC[C@@]2(C)[C@@H](CC[C@@H]3[C@@H]2CC[C@]2(C)C(=O)CC[C@@H]32)C1"
discrete_label = "y"

[[record]]
molecule = "CCCN(CCN1C[C@]2(CC[C@@]3(C)[C@@H](CC[C@@H]4[C@@H]3CC[C@]3(C)C(=O)CC[C@@H]43)C2)OC1=O)C(=O)CC"
discrete_label = "n"

[[record]]
molecule = "C[C@@H]1CN(Cc2cccc(Cl)c2)[C@@H](C)CN1C[C@@]1(O)CC[C@@]2(C)[C@@H](CC[C@@H]3[C@@H]2CC[C@]2(C)C(=O)CC[C@@H]32)C1"
discrete_label = "n"

[[record]]
molecule = "C[C@]12CC[C@](O)(CN3CCN(Cc4ccc(C(F)(F)F)cc4)CC3)C[C@@H]1CC[C@@H]1[C@@H]2CC[C@]2(C)C(=O)CC[C@@H]12"
discrete_label = "n"


----------
Molecular target: 17-beta-hydroxysteroid dehydrogenase type 3 (Homo sapiens) (UniProt P37058)
Sequence (P37058 whole entry): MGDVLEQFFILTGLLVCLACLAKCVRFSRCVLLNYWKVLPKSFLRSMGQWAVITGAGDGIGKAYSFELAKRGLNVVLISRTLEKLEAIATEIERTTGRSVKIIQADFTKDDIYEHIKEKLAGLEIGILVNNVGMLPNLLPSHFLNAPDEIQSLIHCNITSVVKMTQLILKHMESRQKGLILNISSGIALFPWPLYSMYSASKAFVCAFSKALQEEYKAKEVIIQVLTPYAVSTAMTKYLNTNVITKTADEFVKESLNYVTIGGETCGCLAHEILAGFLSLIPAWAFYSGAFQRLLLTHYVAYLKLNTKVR
Assay: Inhibition of 17Beta-HSD3 expressed in intact HEK293 cells assessed as transformation of [14C]-4-androstene-3,17-dione into [14C]-testosterone in presence of NADPH at 0.1 uM after 1 hr incubation
Type: cell-based
The threshold is inclusive: inhibition of exactly 80% counts as True; values below receive False.

[[record]]
molecule = "C[C@]12CC[C@@]3(C[C@@H]1CC[C@@H]1[C@@H]2CC[C@]2(C)C(=O)CC[C@@H]12)CN(Cc1ccccc1)C(=O)O3"
assayed_system = "17-beta-hydroxysteroid dehydrogenase type 3 (Homo sapiens) (UniProt P37058)"
discrete_label = "False"

[[record]]
molecule = "C[C@@H]1CN(S(=O)(=O)c2ccccc2C(F)(F)F)[C@@H](C)CN1C[C@@]1(O)CC[C@@]2(C)[C@@H](CC[C@@H]3[C@@H]2CC[C@]2(C)C(=O)CC[C@@H]32)C1"
assayed_system = "17-beta-hydroxysteroid dehydrogenase type 3 (Homo sapiens) (UniProt P37058)"
discrete_label = "True"

[[record]]
molecule = "COc1cccc(CN2CCN(C[C@@]3(O)CC[C@@]4(C)[C@@H](CC[C@@H]5[C@@H]4CC[C@]4(C)C(=O)CC[C@@H]54)C3)CC2)c1"
assayed_system = "17-beta-hydroxysteroid dehydrogenase type 3 (Homo sapiens) (UniProt P37058)"
discrete_label = "False"

[[record]]
molecule = "C[C@]12CC[C@@]3(C[C@@H]1CC[C@@H]1[C@@H]2CC[C@]2(C)C(=O)CC[C@@H]12)CN(Cc1ccccc1C(F)(F)F)C(=O)O3"
assayed_system = "17-beta-hydroxysteroid dehydrogenase type 3 (Homo sapiens) (UniProt P37058)"
discrete_label = "False"

[[record]]
molecule = "C[C@@H]1CN(C(=O)C2CCCCC2)[C@@H](C)CN1C[C@@]1(O)CC[C@@]2(C)[C@@H](CC[C@@H]3[C@@H]2CC[C@]2(C)C(=O)CC[C@@H]32)C1"
assayed_system = "17-beta-hydroxysteroid dehydrogenase type 3 (Homo sapiens) (UniProt P37058)"
discrete_label = "False"

[[record]]
molecule = "C[C@]12CC[C@](O)(CN3CCN(Cc4ccc(C(F)(F)F)cc4C(F)(F)F)CC3)C[C@@H]1CC[C@@H]1[C@@H]2CC[C@]2(C)C(=O)CC[C@@H]12"
assayed_system = "17-beta-hydroxysteroid dehydrogenase type 3 (Homo sapiens) (UniProt P37058)"
discrete_label = "False"

